recorded.endpoint: melting point

// known answers, use as guide
O=C(Nc1ccc(F)c(Cl)c1)Nc1ccccc1CCO; 193 to 194 °C
Cc1ccc(NC(=O)Nc2ccccc2CCO)cc1F; 184 to 186 °C
N#Cc1cccc(-c2cccc(NC(=O)Nc3ccccc3CCO)c2)c1; 186 to 187 °C

Batch request: melting point for each of the following compounds.
1. O=C(Nc1ccc(Cc2ccccc2)cc1)Nc1ccccc1CCO
2. O=C(Nc1ccc2c(c1)OCO2)Nc1ccccc1CCO
3. O=C(Nc1cccc(-c2ccccc2F)c1)Nc1ccccc1CCO
4. O=C(Nc1cc(F)c(F)cc1F)Nc1ccccc1CCO
5. COc1ccc(OC)c(NC(=O)Nc2ccccc2CCO)c1

164 to 166 °C
183 to 184 °C
171 to 172 °C
172 to 174 °C
157 to 158 °C

Please state melting point for every compound in the list that follows.
1. O=C(Nc1cccc(-c2ccc(OCc3ccccc3)c(F)c2)c1)Nc1ccccc1CCO
2. O=C(NCc1ccc(Br)cc1)Nc1ccccc1CCO
3. CN(C)c1ccc(NC(=O)Nc2ccccc2CCO)cc1
4. COc1cccc(OC)c1-c1cccc(NC(=O)Nc2ccccc2CCO)c1

["181 to 182 °C", "198 to 200 °C", "187 to 188 °C", "180 to 181 °C"]
